Data credit: patent US20120270884A1

Target sequence: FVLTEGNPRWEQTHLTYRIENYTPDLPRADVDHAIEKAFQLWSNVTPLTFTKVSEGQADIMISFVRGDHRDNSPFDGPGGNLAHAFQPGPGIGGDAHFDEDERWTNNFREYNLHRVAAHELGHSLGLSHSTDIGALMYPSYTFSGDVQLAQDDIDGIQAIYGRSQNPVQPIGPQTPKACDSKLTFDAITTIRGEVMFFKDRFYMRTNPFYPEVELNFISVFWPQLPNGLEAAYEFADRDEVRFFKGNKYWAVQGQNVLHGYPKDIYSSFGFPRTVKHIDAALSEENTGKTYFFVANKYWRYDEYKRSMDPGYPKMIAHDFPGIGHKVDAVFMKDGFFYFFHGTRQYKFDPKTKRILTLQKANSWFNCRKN
pIC50: −log10 of the molar value.
measured endpoint: pIC50

Given `COCCOC(=O)N1CCN(S(=O)(=O)c2ccc(Oc3ccc(F)cc3)nc2)[C@@H](C(=O)NO)C1` , respond with its pIC50.
> 7.30

Item `CCOC(=O)N1CCN(S(=O)(=O)c2cc(F)c(Oc3ccc(F)cc3)c(F)c2)[C@@H](C(=O)NO)C1` : provide pIC50
4.70 to 6.00

Look up and report measured pIC50 for this entry: `CS(=O)(=O)N1CCN(S(=O)(=O)c2cc(F)c(Oc3ccc(Cl)cc3)c(F)c2)[C@@H](C(=O)NO)C1`
6.00 to 7.30

Complete the entry with pIC50 for `CC(C)(C)OC(=O)N1CCN(S(=O)(=O)c2cc(F)c(Oc3ccc(F)cc3)c(F)c2)[C@@H](C(=O)NO)C1`
4.70 to 6.00

Could you please provide reported pIC50 for `O=C(NO)[C@H]1CN(C(=O)NCCN2CCCC2)CCN1S(=O)(=O)c1cc(F)c(Oc2ccc(Cl)cc2)c(F)c1` ? Thanks!
4.70 to 6.00

// fetch pIC50 given entry `CN1CCC(OC(=O)N2CCN(S(=O)(=O)c3cc(F)c(Oc4ccc(Cl)cc4)c(F)c3)[C@@H](C(=O)NO)C2)CC1`
4.70 to 6.00

Read the entry `N#Cc1ccc(Oc2ccc(S(=O)(=O)N3CCN(C(=O)N4CCOCC4)C[C@@H]3C(=O)NO)cc2F)cc1` and write its reported pIC50.
6.00 to 7.30

Fill in reported pIC50 for this entry: `O=C(NO)[C@H]1CN(S(=O)(=O)CCN2CCOCC2)CCN1S(=O)(=O)c1cc(F)c(Oc2ccc(Cl)cc2)c(F)c1`
< 4.70

Quickly give me recorded pIC50 for `O=C(NO)[C@H]1CN(S(=O)(=O)CCN2CCCCC2)CCN1S(=O)(=O)c1cc(F)c(Oc2ccc(Cl)cc2)c(F)c1`
6.00 to 7.30

Please give the documented pIC50 of `C=CCN1CCN(S(=O)(=O)c2cc(F)c(Oc3ccc(Cl)cc3)c(F)c2)[C@@H](C(=O)NO)C1`
< 4.70

Specify measured pIC50 for `CN1CCN(S(=O)(=O)c2cc(F)c(Oc3ccc(F)cc3)c(F)c2)[C@@H](C(=O)NO)C1` .
< 4.70

Tell me pIC50 reported for `COCCOC(=O)N1CCN(S(=O)(=O)c2ccc(Oc3ccc(F)cc3)c(F)c2)[C@@H](C(=O)NO)C1`
6.00 to 7.30

Hello, please tell me recorded pIC50 for this one: `CN(C)c1ccc2c(S(=O)(=O)N3CCN(S(=O)(=O)c4cc(F)c(Oc5ccc(Cl)cc5)c(F)c4)[C@@H](C(=O)NO)C3)cccc2c1`
< 4.70

Quickly give me recorded pIC50 for `CN(C)C(=O)CN1CCN(S(=O)(=O)c2cc(F)c(Oc3ccc(Cl)cc3)c(F)c2)[C@@H](C(=O)NO)C1`
< 4.70

State its pIC50: `O=C(NO)[C@H]1CN(CC(=O)N2CCCC2)CCN1S(=O)(=O)c1cc(F)c(Oc2ccc(Cl)cc2)c(F)c1`
< 4.70

Quickly give me recorded pIC50 for `COCCOC(=O)N1CCN(S(=O)(=O)c2ccc(Oc3ccc(F)cc3)cc2)[C@@H](C(=O)NO)C1`
> 7.30

Supply recorded pIC50 for `COCCOC(=O)N1CCN(S(=O)(=O)c2ccc(Oc3ccc(Cl)cc3)c(F)c2)[C@@H](C(=O)NO)C1` here.
6.00 to 7.30

Return pIC50 for the following compound: `CCOC(=O)N1CCN(CC(=O)N2CCN(S(=O)(=O)c3cc(F)c(Oc4ccc(Cl)cc4)c(F)c3)[C@@H](C(=O)NO)C2)CC1`
< 4.70

Kindly indicate its recorded pIC50. Item: `CN1CCN(C(=O)N2CCN(S(=O)(=O)c3cc(F)c(Oc4ccc(Cl)cc4)c(F)c3)[C@@H](C(=O)NO)C2)CC1`
< 4.70

Give the reported pIC50 for this compound. `O=C(NO)[C@H]1CN(C(=O)N2CCOCC2)CCN1S(=O)(=O)c1cc(F)c(Oc2ccc(F)cc2)c(F)c1`
4.70 to 6.00

Query pIC50 for `CN(C)CCS(=O)(=O)N1CCN(S(=O)(=O)c2cc(F)c(Oc3ccc(Cl)cc3)c(F)c2)[C@@H](C(=O)NO)C1`
6.00 to 7.30

Supply measured pIC50 of `CCOC(=O)N1CCN(CCS(=O)(=O)N2CCN(S(=O)(=O)c3cc(F)c(Oc4ccc(Cl)cc4)c(F)c3)[C@@H](C(=O)NO)C2)CC1` in your reply.
4.70 to 6.00

# return recorded pIC50 for entry `O=C(NO)[C@H]1CN(S(=O)(=O)NC(=O)N2CCCCC2)CCN1S(=O)(=O)c1cc(F)c(Oc2ccc(Cl)cc2)c(F)c1`
4.70 to 6.00

Return pIC50 for the following compound: `O=C(NO)[C@H]1CN(S(=O)(=O)Cc2ccncc2)CCN1S(=O)(=O)c1cc(F)c(Oc2ccc(Cl)cc2)c(F)c1`
4.70 to 6.00

Let me know recorded pIC50 for `O=C(NO)[C@H]1CN(C(=O)N2CCOCC2)CCN1S(=O)(=O)c1ccc(-c2cccc(F)c2)nc1` , thanks.
6.00 to 7.30

Output pIC50 of `O=C(NO)[C@H]1CN(S(=O)(=O)NC(=O)N2CCOCC2)CCN1S(=O)(=O)c1cc(F)c(Oc2ccc(Cl)cc2)c(F)c1`
4.70 to 6.00

Tell me measured pIC50 for `O=C(NO)[C@H]1CN(C(=O)N2CCOCC2)CCN1S(=O)(=O)c1ccc(Oc2ccc(Cl)cc2)c(F)c1` please.
6.00 to 7.30

Look up and report measured pIC50 for this entry: `O=C(NO)[C@H]1CN(S(=O)(=O)Cc2cc(Cl)cc(Cl)c2)CCN1S(=O)(=O)c1cc(F)c(Oc2ccc(Cl)cc2)c(F)c1`
< 4.70
